System: HDAC activity in primary mouse cortical cultures
Assay method text: Whole-Cell Histone Deacetylase (HDAC) Inhibition Assay in Primary Mouse Cortical Cultures
Assay type: cell-based
Condition info: whole-cell (WC), mouse cortical neurons; Table 8; read-out: HDAC Inhibition (IC50 μM) WC mouse cortical neurons
A collection of molecules and their measured IC50

Take a look at these entries with their results.
O=C(NO)c1ccc(C2=Nc3ccccc3Oc3ccc(Cl)cc32)cc1 : 5 to 15 µM
COc1cccc2c1Oc1ccc(C(F)(F)F)cc1N=C2c1ccc(C(=O)NO)cc1 : 5 to 15 µM
O=C(NO)c1ccc(C2=Nc3ccccc3N(C3CC3)c3ccc(F)cc32)cc1 : 1 to 5 µM
O=C(NO)c1ccc(-c2ccc3c(c2)C(N2CCOCC2)=Nc2ccccc2O3)cc1 : > 15 µM
O=C(NO)c1ccc(C2=Nc3ccccc3Oc3cc(F)ccc32)cc1 : > 15 µM

Given the entry O=C(NO)c1ccc(C2=Nc3cc(Cl)ccc3Oc3ccccc32)cc1 , report its measured IC50.
5 to 15 µM

Next record, please: O=C(NO)c1ccc(C2=Nc3cncnc3N3CCc4cccc2c43)cc1
5 to 15 µM

Next record, please: CC(C)N1c2ccccc2N=C(c2ccc(C(=O)NO)cc2)c2cccnc21
< 1 µM

Next record, please: O=C(NO)c1ccc(C2=Nc3ccccc3Nc3ccccc32)cc1
1 to 5 µM
